B1: KRT33B (parent)
chain: YQSYFKTIEELQQKILCSKSENAR

- Variants of: B1
- assay_protocol: protein stability index of a GFP-peptide fusion (GPS, HEK-293T) (PSI 1-6); higher = more stable;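 note: lentivirally expressed fusions sorted by FACS into six bins by GFP to DsRed ratio, PSI derived from sequencing read proportions per bin multiplied by bin number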
- experimental_setup: c terminus: a fixed tail appended
readout_label: protein stability index
Enter a number only.

Recorded results for 5 variants are shown here.
{"columns": ["variant_spec", "readout_label", "result"],
 "data": [
  ["Q13N", "protein stability index", 2.19],
  ["Q2Y", "protein stability index", 2.16],
  ["F5K", "protein stability index", 2.38],
  ["R24V", "protein stability index", 1.98],
  ["F5V", "protein stability index", 2.26]
]}

Please look at this variant and report its protein stability index: `E21N` 1.79
